Assign polymerase ribozyme fitness (log ratio) to each entry below.
B1: TPR t1 (parent)
chain: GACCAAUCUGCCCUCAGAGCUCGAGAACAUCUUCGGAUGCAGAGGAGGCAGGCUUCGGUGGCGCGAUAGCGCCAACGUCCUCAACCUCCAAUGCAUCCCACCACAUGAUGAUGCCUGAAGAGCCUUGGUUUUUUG

- Variants of: B1
- assayName: polymerase ribozyme fitness, log enrichment relative to wild type (log ratio); higher = more active; in vitro selection for triplet polymerase activity
Format: numeric value only, no unit, no commentary.

Could you share which polymerase ribozyme fitness (log ratio) value was measured for G61C C94G ?
-2.92

Tell me the measured polymerase ribozyme fitness (log ratio) of C53G G58C C62A C85U G113A , please.
-2.93

So what's the measured polymerase ribozyme fitness (log ratio) for this one? C13A G63U
-3.09

Look up polymerase ribozyme fitness (log ratio): C11A G52A C73G
-2.98
